molecular target: Hck (UniProt P08631); experiment: phosphorylation enrichment, bacterial display (enrichment ratio); higher = better substrate or ligand; peptides without Tyr show the background;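 also: 11-residue human phosphosite peptides and single-mutation variants displayed on the E. coli surface, counted by deep sequencing, each peptide's frequency after selection divided by its frequency in the unselected input library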;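 also: frequency after pTyr selection over input frequency; kinase dosed for 20-30% of maximal phosphorylation in three min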
Sequence (P08631 whole entry, looked up): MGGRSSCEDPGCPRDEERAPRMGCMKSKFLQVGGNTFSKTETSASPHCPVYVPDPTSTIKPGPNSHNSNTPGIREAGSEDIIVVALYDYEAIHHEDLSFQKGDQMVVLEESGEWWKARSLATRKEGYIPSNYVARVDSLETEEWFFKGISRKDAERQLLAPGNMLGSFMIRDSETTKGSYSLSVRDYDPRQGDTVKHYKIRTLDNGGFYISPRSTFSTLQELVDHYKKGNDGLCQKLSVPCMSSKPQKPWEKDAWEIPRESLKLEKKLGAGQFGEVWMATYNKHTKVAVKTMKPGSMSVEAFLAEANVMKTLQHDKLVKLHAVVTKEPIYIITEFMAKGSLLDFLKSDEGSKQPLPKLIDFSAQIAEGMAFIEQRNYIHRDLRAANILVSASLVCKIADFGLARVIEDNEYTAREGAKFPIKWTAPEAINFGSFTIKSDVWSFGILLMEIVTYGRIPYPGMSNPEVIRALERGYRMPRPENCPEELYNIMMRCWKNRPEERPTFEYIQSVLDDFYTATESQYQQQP
We use 0.5 as the dividing line for phosphorylation enrichment: on or above the line is TRUE, below is FALSE.

monomer sequence: NAGAFYALSTL [FLVCR2_Y325]
category: TRUE
--
monomer sequence: MHYSNYVSKGS [PDGFRA_Y849_D846Y]
category: FALSE
--
monomer sequence: EEGRVYVYHLS [ITGAE_Y549_R552H]
category: TRUE
--
monomer sequence: HESEIYCKVCY [CSRP3_Y57]
category: TRUE
--
monomer sequence: FQEKGYNKEPR [CHRND_Y38_L42P]
category: TRUE
--
monomer sequence: CERFSYYGMKA [SLC15A2_Y60]
category: TRUE
--
monomer sequence: GGDAVYTNGTI [RFX2_Y82_A86T]
category: TRUE
--
monomer sequence: TDVSLYPSGGT [TENM4_Y399]
category: FALSE
--
monomer sequence: PYADPYYDYEI [ZC3H18_Y371]
category: TRUE
--
monomer sequence: PSSNLYYRWLT [CNGA3_Y168]
category: TRUE
--
monomer sequence: IYETDYYRKGG [INSR_Y1189]
category: TRUE
--
monomer sequence: YLEEEYVKAVG [TF_Y674_G671E]
category: TRUE
--
monomer sequence: NVLPEYKLQAP [KCNH2_Y388_D383N]
category: TRUE
--
monomer sequence: RDLTDYLMKIL [ACTA1_Y190]
category: TRUE
--
monomer sequence: EVKEAYMGSVL [ACAT1_Y90_N93S]
category: FALSE
--
monomer sequence: GNHVSYFQSDG [CACNA1C_Y1757_YF]
category: FALSE
--
monomer sequence: AVARPYHIQKW [ACSBG1_Y677_A673V]
category: FALSE
--
monomer sequence: HNQDGYSFPSR [LDLR_Y845_YF]
category: TRUE
--
monomer sequence: SCRSKYVGLWG [KCNQ1_Y184_G179S]
category: FALSE
--
monomer sequence: QPSPSYDSSGG [TCF12_Y70_R74G]
category: TRUE
--
monomer sequence: ELTAKYLNFFR [P3H4_Y181_Q186R_YF]
category: FALSE
--
monomer sequence: VTQEQYELYCE [CBL_Y368]
category: TRUE
--
monomer sequence: CTTIQYNFMCN [TP53_Y234_H233Q_YF]
category: TRUE
--
monomer sequence: LVRAFYCERRW [CARD11_Y970_R975W]
category: TRUE
--
monomer sequence: GLRFGYGGLGG [KRTAP20-2_Y15_V17G_YF]
category: FALSE
--
monomer sequence: RQQEDYLLYKQ [RARRES1_Y159]
category: TRUE
--
monomer sequence: SPPILYSFFLN [FCRL6_Y239_D244N_YF]
category: TRUE

* * *

target: Jak2 (UniProt O60674); experiment: phosphorylation enrichment, bacterial display (enrichment ratio); higher = better substrate or ligand; peptides without Tyr show the background
Sequence (O60674 whole entry, looked up): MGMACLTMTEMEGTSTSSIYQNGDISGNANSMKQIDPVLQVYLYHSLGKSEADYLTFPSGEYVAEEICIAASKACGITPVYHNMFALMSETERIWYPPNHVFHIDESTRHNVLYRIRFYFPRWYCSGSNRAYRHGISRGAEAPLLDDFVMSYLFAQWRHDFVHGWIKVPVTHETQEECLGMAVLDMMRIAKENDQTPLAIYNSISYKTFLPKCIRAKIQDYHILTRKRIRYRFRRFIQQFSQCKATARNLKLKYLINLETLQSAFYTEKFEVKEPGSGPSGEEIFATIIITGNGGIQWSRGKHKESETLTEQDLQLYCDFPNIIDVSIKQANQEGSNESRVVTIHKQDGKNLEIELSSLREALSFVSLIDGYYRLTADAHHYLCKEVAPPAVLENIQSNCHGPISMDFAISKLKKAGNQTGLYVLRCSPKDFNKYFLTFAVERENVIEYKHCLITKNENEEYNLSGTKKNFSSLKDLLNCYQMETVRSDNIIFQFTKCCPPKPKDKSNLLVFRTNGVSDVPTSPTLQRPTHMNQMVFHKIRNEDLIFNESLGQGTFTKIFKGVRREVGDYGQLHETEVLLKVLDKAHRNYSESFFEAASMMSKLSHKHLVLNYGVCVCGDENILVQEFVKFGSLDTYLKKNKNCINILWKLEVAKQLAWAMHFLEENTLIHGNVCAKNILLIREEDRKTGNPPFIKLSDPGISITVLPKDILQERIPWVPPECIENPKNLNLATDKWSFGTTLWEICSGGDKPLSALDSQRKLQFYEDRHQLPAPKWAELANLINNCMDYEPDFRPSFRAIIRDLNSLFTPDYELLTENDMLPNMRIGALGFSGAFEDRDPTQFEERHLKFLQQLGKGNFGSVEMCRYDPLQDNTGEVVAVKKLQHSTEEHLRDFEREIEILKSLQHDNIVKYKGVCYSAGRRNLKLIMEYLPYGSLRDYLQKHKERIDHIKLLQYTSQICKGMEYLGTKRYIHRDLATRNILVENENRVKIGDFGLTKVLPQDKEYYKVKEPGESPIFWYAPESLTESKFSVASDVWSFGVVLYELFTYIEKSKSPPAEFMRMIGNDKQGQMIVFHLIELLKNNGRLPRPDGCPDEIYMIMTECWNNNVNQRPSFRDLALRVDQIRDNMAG
# phosphorylation enrichment annotations

monomer sequence: ALTDNYMYLVI [HAGH_Y61]
phosphorylation enrichment: 2.46
--
monomer sequence: LPKEQYLFTKE [AFG3L2_Y614_YF]
phosphorylation enrichment: 0.532
--
monomer sequence: KLSHLYQDHMQ [WNT5A_Y86_C83S]
phosphorylation enrichment: 0.712
--
monomer sequence: IKETHYMVDKC
phosphorylation enrichment: 0.804
--
monomer sequence: QPSALYEDRFL [ASS1_Y83_S79P_YF]
phosphorylation enrichment: 0.968
--
monomer sequence: PVQAAYPKVVA [HBB_Y131_Q132P]
phosphorylation enrichment: 0.828
--
monomer sequence: KGEDFYSVTCH [FHL1_Y149_C150S]
phosphorylation enrichment: 1.13
--
monomer sequence: TTKGSYSLSVR [HCK_Y180]
phosphorylation enrichment: 1.04
--
monomer sequence: VGTKRYMAPKV [ACVRL1_Y375_E379K]
phosphorylation enrichment: 0.482
--
monomer sequence: VSYGEYRYRSV [CFTR_Y515_D513G]
phosphorylation enrichment: 0.612
--
monomer sequence: TMKSHYMELYD [BBS2_Y644_R643H]
phosphorylation enrichment: 0.864
--
monomer sequence: YDGKEYDPVEA [MAPRE2_Y167]
phosphorylation enrichment: 1.22
--
monomer sequence: ESKAGYRVPRS [CLDN7_Y195]
phosphorylation enrichment: 0.524
--
monomer sequence: MHYSNYVSKGS [PDGFRA_Y849_D846Y]
phosphorylation enrichment: 0.467

Attribution: the supplement of paper PMC10065799
